Exercise: state measured log10 ε340 nm for each of the compounds provided.
Experiment: Absorption coefficient of reactants, products and catalysts (UV-Vis)
Type: physicochemical
Details: MeCN
Please interpret these as log10 of ε340 nm where ε340 nm is in M⁻¹ cm⁻¹.

The cases that follow already have their log10 ε340 nm on record.
compound: O=Cc1ccc([N+](=O)[O-])cc1
log10 ε340 nm: 2.51
--
compound: O=[N+]([O-])/C=C/c1ccccc1 [Nitrostyrene, trans-β-nitrostyrene]
log10 ε340 nm: 4.05
--
compound: CC[N+](=O)[O-]
log10 ε340 nm: -0.52

Okay, here is my list. What is log10 ε340 nm for each of these?
1. CN(CCCNC(=O)c1ccc(C(=O)NCCCN(C)CCc2ccc(/N=N\c3ccccc3)cc2)cc1)CCc1ccc(/N=N\c2ccccc2)cc1
2. CC(=O)CC(C)=O

result:
1. 3.83
2. 0.38

###

Test: Thermal reversion kinetics measurements (Z-to-E)
Assay type: physicochemical
Details: Z-to-E thermal reversion at 298 K (room temperature); 1 in MeCN, 2 in MeOH
I'd appreciate it if you could supply τ1/2 (thermal half-life of Z isomer) values for the items below.
Numbers only, in h.

For the 3 compounds below, give their τ1/2 (thermal half-life of Z isomer) values.
1. CN(CCCNC(=O)c1ccc(C(=O)NCCCN(C)CCc2ccc(N=Nc3ccccc3)cc2)cc1)CCc1ccc(N=Nc2ccccc2)cc1 [Compound 1]
2. CN(CCCNC(=O)c1ccc(C(=O)NCCCN(C)CCc2ccc(/N=N\c3ccccc3)cc2)cc1)CCc1ccc(/N=N\c2ccccc2)cc1 [Compound 1-Z]
3. CN(CCCNC(=O)c1ccc(-c2ccc(C(=O)NCCCN(C)CCc3ccc(/N=N\c4ccccc4)cc3)cc2)cc1)CCc1ccc(/N=N\c2ccccc2)cc1 [Compound 2-Z]

result:
199
199
84

query: Name the reported τ1/2 (thermal half-life of Z isomer) value associated with the compound CN(CCCNC(=O)c1ccc(-c2ccc(C(=O)NCCCN(C)CCc3ccc(N=Nc4ccccc4)cc3)cc2)cc1)CCc1ccc(N=Nc2ccccc2)cc1 [Compound 2]
result: 84

All values here come from patent US20250066287A1.
